These measurements were taken from PubChem BioAssay (NCI).

Examples of compounds with documented TGI follow.
Tested on: A549 NSCLC
Assay: NCI tumour cell line growth inhibition, 48 h

Returns the measured TGI for the input compound. Input: Cc1ccc(Cl)c(NS(=O)(=O)c2ccc(-c3cnc(C4CC4)o3)cc2)c1
> 100 µM

I would be grateful if you could share the reported TGI for CCOC(=O)c1c(C)nc2c(c1N)/C(=C/c1ccccn1)C(=O)N2Cc1ccccc1 .
> 50 µM

Suppose we examine the compound COc1ccc2c(O)c(/C=C3\N=Nc4ncccc43)oc2c1C[C@@H]1CCNC[C@H]1F ; what TGI value has been reported?
3.93 µM

# query: TGI of entry Oc1ccc(C(O)(c2ccccc2)c2ccccc2)c2ccccc12
11.9 µM

State the recorded TGI for this entry: CN(C)Cc1ccc(NC(=O)c2cncc(C#Cc3cnc(N)c4ncccc34)c2)cc1F
7.11 µM

May I ask what TGI has been recorded for O=C1NC2(CCCCC2)C(=O)N1CCN(CCCl)CCCl ?
> 250 µM

Consider the compound shown here: C=CCCCN1CCCC(C)C1=S (stereo unspecified) What is its recorded TGI?
> 100 µM

Which TGI is listed for CC1=C(C(=O)Nc2ccc(F)c(Cl)c2)C(c2cccc(Oc3ccccc3)c2)NC(=S)N1 (stereo unspecified) ?
> 50 µM

Return reported TGI; argument: Cc1nc2cc3ccccc3cc2[nH]c1=O
> 100 µM

What value of measured TGI is listed for COc1cc2cc3c4c(cc(OC)c(OC)c4c2cc1OC)CCN3C ?
> 50 µM

Quick check: TGI of CC(C)OC/N=C(/N)NC#N ?
> 100 µM
